Assay Explanation: Analytical size exclusion chromatography (percent monomer)
Type: physicochemical
Condition Notes: NEM-conjugated cysteine variants; SEC, Abs280 monomer region 5.5-6 minutes vs oligomer region 4-5.3 minutes
Measured Percent monomer by item
Just the number please, in %, no unit attached.

{"Molecule": "G85C (conjugate, left off: small tags and cut ends) LPAPKNLVVSEVTEDSARLSWDDPWAFYESFLIQYQESEKVGEAIVLTVPGSERSYDLTGLKPGTEYTVSIYGVHNVYKDTNMRCLPLSAIFTT", "Percent monomer (%)": 95}

Form field Percent monomer, entry E39C (conjugate, left off: small tags and cut ends) LPAPKNLVVSEVTEDSARLSWDDPWAFYESFLIQYQESCKVGEAIVLTVPGSERSYDLTGLKPGTEYTVSIYGVHNVYKDTNMRGLPLSAIFTT : 100
